Data provenance is paper PMC4965013.

Tested on: P. falciparum 3D7 trophozoites
PROCEDURE SUMMARY: Metabolomic fingerprint profiling LC-MS
Assay type: cell-based, Plasmodium falciparum
CONDITION DETAILS: metabolite FAD, S2 Table Metabolomics
READOUT KIND: FAD
The response must contain the number and no unit.

> print(dat)
                                   molecule  readout.kind  observed.result
1      CCOC(=O)c1ccc2nc(-c3ccccc3)cc(O)c2c1           FAD            0.202
2  Cc1ccc(N2C(=O)C3C(C2=O)C2(c4ccccc4)C(=O)C3(c3ccccc3)C(c3ccccc3)=C2c2ccccc2)cc1 (stereo not drawn)           FAD          -0.2118

Task: State its FAD for this molecule: Cc1cc(C)c2c(c1)OCN(Cc1ccccc1Cl)C2
Result: -0.09577

Task: Consider the molecule CCOC(=O)c1cnc2ccc(CC)cc2c1O . State its measured FAD.
Result: 0.2601

Task: Please give measured FAD of the following entry: O=C(NCC(c1ccsc1)N1CCCCCC1)c1ccc(C(F)(F)F)cc1 (stereo not drawn)
Result: 0.01705

Task: Give a short answer stating reported FAD for CCCc1c(CC)c(=N)c2ccccc2n1C .
Result: 0.5238

* * *

System: P. falciparum 3D7 trophozoites
PROCEDURE SUMMARY: Metabolomic fingerprint profiling LC-MS
Assay type: cell-based, Plasmodium falciparum
CONDITION DETAILS: S2 Table Metabolomics; metabolite orotate
Let's look at some compounds and their measured orotate.
No unit in the answer, only the number.

Study these solved cases before continuing.
> print(dat)
                                   compound  readout.kind  observed.result
1  Cc1cc(C=C2SC(=Nc3ccccc3)N(C3CCCC3)C2=O)c(C)n1-c1ccc(Cl)cc1 [MMV666688]       orotate          -0.3391
2  CCc1ccc(Nc2cc(C)c3ccc(O)cc3n2)cc1 [MMV000570]       orotate           -1.158
3  CN(C)c1ccc(C=Cc2nc(=O)c3ccccc3o2)cc1 [MMV006309]       orotate          -0.6105
4  CCOC(=O)c1cn(CC)c2cc(N(C)CCc3ccc(OC)c(OC)c3)c(F)cc2c1=O [MMV665977]       orotate          -0.8094
5  CCN(CC)CCNc1ncnc2c1[nH]c1ccc(Cl)cc12 [MMV396703]       orotate           -0.221

Task: Give the measured orotate for Oc1ccccc1CNCC12CC3CC(CC(C3)C1)C2 [MMV020788]
Result: -1.435

Task: Fill in orotate for record COc1ccc2c(c1)OC(O)(C(F)(F)C(F)(F)F)CC2=O (stereo not shown) [MMV007839]
Result: -2.224

Task: Read off the recorded orotate for Cc1cccc(Nc2nc(N)c3ccccc3n2)c1 [MMV019110]
Result: -0.7263

Task: Entry Cc1cc(NCCN2CCCCC2)c2ccc3ccccc3c2n1 [MMV006203] needs its orotate filled in; supply it.
Result: 0.1057

Task: Identify measured orotate associated with COc1cc(OC)c(N(C)C(=O)c2cc3c(s2)-c2ccccc2S(=O)(=O)C3)cc1Cl [MMV006427]
Result: 0.4264

* * *

Test system: P. falciparum 3D7 trophozoites
PROCEDURE SUMMARY: Metabolomic fingerprint profiling LC-MS
Format: cell-based, Plasmodium falciparum
CONDITION DETAILS: metabolite sarcosine/alanine; S2 Table Metabolomics, change in metabolite level after compound treatment
# sarcosine/alanine listing for each entry below
Would you mind answering with just the numeric figure?

Examples with their reported sarcosine/alanine follow.
> print(dat)
                                   molecule  observed.result
1       COc1cccc(C=Cc2nc(=O)c3ccccc3o2)c1OC           0.4257
2         COc1ccc2c(=O)cc(C(Cl)(Cl)Cl)oc2c1            -2.81
3        CSc1ccccc1C(=O)Nc1nc(-c2ccccn2)cs1           0.1583
4  COc1ccc(NC(=O)C2c3ccccc3C(=O)N(CC(C)C)C2c2cccs2)cc1 (stereo not drawn)          -1.6779
5   COc1ccc(C=C2SC(=N)N(c3ccccc3OC)C2=O)cc1           0.4028

Task: Input COc1ccc(-c2nc(NC(=O)CS(=O)(=O)c3ccc(F)cc3)sc2C)cc1 , output reported sarcosine/alanine.
Result: -0.5111

Task: Give the measured sarcosine/alanine for COc1cccc(NC(=O)[C@H](C(C)C)n2c(=O)[nH]c3ccccc3c2=O)c1
Result: -1.666

Task: Input CCOC(=O)c1cn(CC)c2cc(N3CCCCC3)c(F)cc2c1=O , output reported sarcosine/alanine.
Result: 0.4367

Task: // fetch sarcosine/alanine given entry CCCN(CCC)CC(O)COc1ccccc1C(=O)Nc1ccccc1 (stereo not drawn)
Result: -0.7349

Task: For the molecule c1ccc(Cn2c(N=Nc3c(Nc4ccccc4)ccc4ccccc34)nc3ccccc32)cc1 , give its measured sarcosine/alanine value.
Result: -0.02978

Task: For the molecule CCOC(=O)c1ccc2nc(-c3ccccc3)cc(O)c2c1 , give its measured sarcosine/alanine value.
Result: 0.6115

Task: Let me know recorded sarcosine/alanine for CCOC(=O)c1c(NC(=O)c2ccccc2)sc2c(O)c(CN(CC)CC)ccc12 , thanks.
Result: -1.233

* * *

System: T. equi (USDA strain)
PROCEDURE SUMMARY: T. equi fluorescence-based growth assay
Type: cell-based
CONDITION DETAILS: Theileria equi
Reported pEC50 is given for each of the following compounds.
# pEC50 = -log10(concentration in molar units)

Some compounds with known pEC50 results, for comparison:
> print(dat)
                        structure.as.smiles  readout.kind  observed.result
1     COc1cc2cc(C(=O)Nc3ccccc3)c(N)nc2cc1OC         pEC50             5.52
2  CCN(CC)c1cc(C)c2cc(NC(=O)c3cccc(OC)c3)ccc2n1         pEC50             6.34
3  CCN1CCN(c2cc(C)c3cc(NC(=O)c4ccc(OC)c(OC)c4)ccc3n2)CC1         pEC50             6.48

In the following, a different compound is considered.
Task: Indicate the recorded pEC50 value for this compound: CCOC(=O)c1cnc2ccc(OC)cc2c1NCc1ccccc1
Result: 4.85

* * *

Tested on: P. falciparum 3D7 trophozoites
PROCEDURE SUMMARY: Metabolomic fingerprint profiling LC-MS
Format: cell-based, Plasmodium falciparum
CONDITION DETAILS: metabolite dGMP/AMP; S2 Table Metabolomics, change in metabolite level after compound treatment
READOUT KIND: dGMP/AMP
Answer with a number only.

Here's what some known entries look like.
> print(dat)
                                   molecule  observed.result
1       CCCc1cc(O)c2c3c(c(=O)oc2c1)CN(C)CC3         -0.03336
2  COc1ccc(NC(=O)C2c3ccccc3C(=O)N(CC(C)C)C2c2cccs2)cc1Cl (stereo not drawn)          -0.6011
3  COc1ccc(C(C)=O)cc1N1C(=O)C2C(C1=O)C1(c3ccccc3)C(=O)C2(c2ccccc2)C(c2ccc(C)cc2)=C1c1ccc(C)cc1 (stereo not drawn)           0.2576
4  CCCN(CCC)CC(O)COc1ccccc1C(=O)Nc1ccccc1 (stereo not drawn)           0.4722
5                  CCc1c(C)c(=N)c2ccccc2n1C          -0.3534

Task: State its dGMP/AMP for this molecule: Cc1cc(NCCN2CCCCC2)c2ccc3ccccc3c2n1
Result: 0.6443

Task: Return dGMP/AMP for the following molecule: COc1ccccc1CNC(=O)CCn1c(=O)[nH]c2ccccc2c1=O
Result: 0.3579

Task: Output dGMP/AMP of CC1CN(C(=O)c2sc3ccccc3c2Cl)CC(C)O1 (stereo not drawn)
Result: 0.09845

Task: State its dGMP/AMP: Cc1cc(C)cc(Nc2cc(C)nc3nc(C(F)(F)F)nn23)c1
Result: -0.551

* * *

Test system: P. falciparum 3D7 trophozoites
PROCEDURE SUMMARY: Metabolomic fingerprint profiling LC-MS
Assay type: cell-based, Plasmodium falciparum
CONDITION DETAILS: S2 Table Metabolomics; peptide DLH
# DLH listing for each entry below
Please reply with the value in numeric form only.

Worked set:
> print(dat)
                                    compound                 subject.of.test  readout.kind  observed.result
 1     Fc1ccc2[nH]c3c(NCCCN4CCOCC4)ncnc3c2c1  P. falciparum 3D7 trophozoites           DLH           -1.437
 2  c1ccc(Cn2c(N=Nc3c(Nc4ccccc4)ccc4ccccc34)nc3ccccc32)cc1  P. falciparum 3D7 trophozoites           DLH           -0.403
 3  CCOC(=O)c1cn(CC)c2cc(N(C)CCc3ccc(OC)c(OC)c3)c(F)cc2c1=O  P. falciparum 3D7 trophozoites           DLH          -0.4948
 4   Cc1cc(Nc2ccc(Cl)cc2)n2nc(C(F)(F)F)nc2n1  P. falciparum 3D7 trophozoites           DLH          -0.3185
 5  COc1ccc(NC(=O)C2c3ccccc3C(=O)N(CC(C)C)C2c2cccs2)cc1Cl (centres unmarked)  P. falciparum 3D7 trophozoites           DLH           -5.968
 6              CCN(CC)CCNc1ccnc2cc(Cl)ccc12  P. falciparum 3D7 trophozoites           DLH           -1.609
 7  CC1CCN(Cc2ccc(NC(=O)c3cc4ccc5cccnc5c4[nH]3)cc2)CC1  P. falciparum 3D7 trophozoites           DLH           -1.428
 8             Cc1cccc(Nc2nc(N)c3ccccc3n2)c1  P. falciparum 3D7 trophozoites           DLH          -1.2334
 9  Cc1cc(NC(=O)C2c3ccccc3C(=O)N(CC(C)C)C2c2cccs2)no1 (centres unmarked)  P. falciparum 3D7 trophozoites           DLH           -5.907
10       CCCc1cc(O)c2c3c(c(=O)oc2c1)CN(C)CC3  P. falciparum 3D7 trophozoites           DLH           -2.223

Task: State, in one line, measured DLH of Cc1ccc(Nc2nc(-c3ccccn3)cs2)cc1
Result: -0.1443
